I'd appreciate it if you could supply apparent KD of MS2 coat protein values for the items below.
tested on: MS2 coat protein; assay: apparent KD of MS2 coat protein; higher = weaker reporter binding; conditions: Eterna round: R107; input ligand: arginine 13.2 mM
Hi! Could you send only the number? It should be in nM, unit omitted.

I'd like to know its apparent KD of MS2 coat protein. The sequence in question is AAGACAUGAGGAUCACCCAUGUCGUGUGAACGAGGACCGGUACGGCCGCCACUCGUUUGAAAAUAAACGAAUGCGGCCUGGGAAA [Exclusion Tryp A GF1]
11.1

I'd like to know its apparent KD of MS2 coat protein. The sequence in question is UUGGGUUUGUGAAGGAGCGGGAAAGUUUUAUAGUGAAUCCUAACAUGAGGAUCACCCAUGUCCCAGGUAGGUCGCGCGGGUUUGG [12.Q]
240

I'd like to know its apparent KD of MS2 coat protein. The sequence in question is UAAAUAUUACUGGGUAAGGUAUAAAUAGAUACCAGCCAGAUAACUGGCCCUUGGCAGCUAAACAUGAGGAUCACCCAUGUAUAAU [TheoAS 20 #OpenEnded #Ms2Late]
23.5

I'd like to know its apparent KD of MS2 coat protein. The sequence in question is GCUAGGUCUACGGCCGCCACUAGACGUGGGUAAGACAUGAGGAUCACCCAUGUACUACAGGCGCAUAGGACCGGGUAGACCUAGC [SSTB NP+V+V2 #11 Same Structure]
49.6

I'd like to know its apparent KD of MS2 coat protein. The sequence in question is AGACAUGAGGAUCACCCAUGUAGCAUGGAUACCAGAUGCAGAUUUAUCCCUUGGCAGCUGUGGUAAAGUGAUGCAUUGCUCCUAG [Exclusion - Theophylline A (Freestyle 6)]
18.8

I'd like to know its apparent KD of MS2 coat protein. The sequence in question is CUCCCACUAUCUGAUACCAGAGGAUAAACGUAGACUGGGAACAUGAGGAUCACCCAUGUCCUCCCUUGGCAGCAGGACUUAUCUC [theeternabot_exclusion_MS2_Theo_B_29]
22.2

I'd like to know its apparent KD of MS2 coat protein. The sequence in question is ACUAGUUGUGCAGAUACCAGAUAUGAGGAUCACCCAUAUUUGGGAUGUUCGCAUCUUCCUGUCCCUUGGCAGCUGUACAUCUAGA [Omei Theo B Exc v7]
37.9

I'd like to know its apparent KD of MS2 coat protein. The sequence in question is UUAUUUAACGGAAGGAGCGCGGAAUAAUAAGUGGGUAAACAUGAGGAUCACCCAUGUAAACCGCAGGUAGGUCGCCGAUAUUUAU [AstrosEXyARgB#3]
66.2

I'd like to know its apparent KD of MS2 coat protein. The sequence in question is GAAGAUCCGUAAGAUACCAGUGCAGAUCGGCACAUGAGGAUCACCCAUGUAAAGCAAGAACACCCUUGGCAGCUUUCGUAACAAC [theeternabot_sameState_MS2_Theo_B_15]
66.9

I'd like to know its apparent KD of MS2 coat protein. The sequence in question is AAGGGAGAGUCAGAUACCAGAGUAAGAUGGCAUGGUAAUUACAUGAGGAUCACCCAUGUAUUCCCUUGGCAGCUGACCCUACGUU [Exclusion Theophylline B GF 19]
17.6

I'd like to know its apparent KD of MS2 coat protein. The sequence in question is AGACUUCGCAUAGGAAAACUAUGUGAAGUCCGAGGACCGGUACGGCCGCCACUCGUCCUCACAUGAGGAUCACCCAUGUAAAUAA [#OpenEnded 2 #CuTurnoff #Tail]
22.7

---

test system: MS2 coat protein; assay: apparent KD of MS2 coat protein; designed switch direction (-1 OFF switch, 1 ON switch): 1; higher = weaker reporter binding; conditions: Eterna round: R95; input ligand: microRNA oligo, concentration not stated
Measure Name: apparent KD of MS2 coat protein (nM)
Hi! Could you send only the number? It should be in nM, unit omitted.

I'd like to know its apparent KD of MS2 coat protein. The sequence in question is AAAAUACAUGAGGAUCACCCAUGUAGAAACUACACAGGAUAUCGGACGGCUGUAGCCAAACGAGAAGGGUGAACCC [Ramazaza] (puzzle: Same State 1)
60.8

I'd like to know its apparent KD of MS2 coat protein. The sequence in question is GGAGAAUAACUAGAGGAUAUCCGAGUGGUAACAUGAGGAUCACCCAUGUGAUGAAAGGAACAUGAGGAGAAGGCUAGAAUGAAGG [Mat - Same State 2 - Mod of JL - D85] (puzzle: Same State 2)
34.9

I'd like to know its apparent KD of MS2 coat protein. The sequence in question is AACAAUCUAUCUGAGGAUAUCAUGAAAUAAACAUGAGGAUCACCCAUGUGCAGGAAAUCUGCAUAUGAGAAGGCAGAUAGAUUGA [salish99_ss2_r3_043] (puzzle: Same State 2)
1240

I'd like to know its apparent KD of MS2 coat protein. The sequence in question is UACAAUCUAUCUGAGGAUAUCAUGAAGAAAACAUGAGGAUCACCCAUGUGCAGGAGAACUGCAAAUGAGAAGGCAGAUAGAUUGU [Mat - Same State 2 - Mod - D1] (puzzle: Same State 2)
12.9

I'd like to know its apparent KD of MS2 coat protein. The sequence in question is AUAAAACAUGAGGAUCACCCAUGUCAACAAAGUCGAGGAUAUGGGCAAAUAAUAUAAGAACCAGAAGGCGAAUAAU [salish99_ss1_r3_022] (puzzle: Same State 1)
207

---

I'd appreciate it if you could supply apparent KD of MS2 coat protein values for the items below.
tested on: MS2 coat protein; test: apparent KD of MS2 coat protein, switch ON state; designed switch direction (-1 OFF switch, 1 ON switch): 1; higher = weaker reporter binding; conditions: FMN input: 0 or 200 uM; Eterna round: R93 (includes R88 designs)
Hi! Could you send only the number? It should be in nM, unit omitted.

Identify the measured apparent KD of MS2 coat protein of AUUCCAAAUAGUCAGGAUAUCAGAAGUAAGACAUGAGGAUCACCCAUGUACUUAGUAAAAGUAACUGAGAAGGGACAGGGUGUAA [JR_SS002_Sub405] for MS2 coat protein.
17.4

Identify the measured apparent KD of MS2 coat protein of GAAAAACAUGAGGAUCACCCAUGUAGAAAUAUGGGAGGAUAUACAAAGACGAAAGUCAAAGUAGAAGGCCUGAAAG [77%, Mat - Mod of Eli, 1] for MS2 coat protein.
27.1

Identify the measured apparent KD of MS2 coat protein of AAGAAACAUGAGGAUCACCCAUGUAGAAACAUGGGAGGAUAUACAAAGACGAAAGUCAAAGUAGAAGGCCUAAGAA [Mat - Same State 1 - Mod - D164] for MS2 coat protein.
102

Identify the measured apparent KD of MS2 coat protein of UAAAAACAUGAGGAUCACCCAUGUGAGAACAUGGGAGGAUAUACAAAGACGAAAGUCAAAGUAGAAGGCCUAAAAU [Mat - Same State 1 - Mod - D170] for MS2 coat protein.
75.1

Identify the measured apparent KD of MS2 coat protein of GGGACCAGCGUCAAGGAUAUUCAUAUAUAAACAUGAGGAUCACCCAUGUAGGCCAGGAGGCCUUGGGAGAAGGUGAGUUGGCUCG [Xegedibe] for MS2 coat protein.
40.5

Identify the measured apparent KD of MS2 coat protein of GGGAGGAAGAGAGAGGAUAUCCAAAGGAAAACAUGAGGAUCACCCAUGUAAAAGGUAGGAAAUUGGGAGAAGGCUCAAGAGAGGG [salish99-ss2-051] for MS2 coat protein.
23.6

Identify the measured apparent KD of MS2 coat protein of AAUAUACAUGAGGAUCACCCAUGUUAGGUGGGACUAGGAUAUCAAAAUAAAUAAAGAACAUGAGAAGGAGUAUCAA [JR_SS001_Sub401] for MS2 coat protein.
94.5

Identify the measured apparent KD of MS2 coat protein of GUAUAUAUAAGACAGGAUAUCCUAAAGUAAACAUGAGGAUCACCCAUGUAAAGAAAGAAACUCAUGGAGAAGGGUCAAUAUAUAC [Mat - Same State 2 - Tesla mod - D82] for MS2 coat protein.
11.5

Identify the measured apparent KD of MS2 coat protein of CGGAGACAUGAGGAUCACCCAUGUGAGAAGAGGCGAGGAUAUCGAAAGAAAGAAGAGAAACGAGAAGGCGCGAGUA [salish99-SS1-066] for MS2 coat protein.
20.3

Identify the measured apparent KD of MS2 coat protein of AAAAGACAUGAGGAUCACCCAUGUAAAAACUUGAGAGGAUAUGCUUGGAAAACAUGCUAUGCAGAAGGCUCUAGUC [SS1 - 15] for MS2 coat protein.
18

Identify the measured apparent KD of MS2 coat protein of CGGAGACAUGAGGAUCACCCAUGUGAGAAGAGGCGAGGAUAUGGAAAUAAAGAAGAGAAAUGAGAAGGCGCGAGCC [salish99-SS1-082] for MS2 coat protein.
40.6

Identify the measured apparent KD of MS2 coat protein of UAAAAACAUGAGGAUCACCCAUGUGAGAACAUGGGAGGAUAUACGAAGACGAAAGUCGAAGUAGAAGGCCUAAAAU [Mat - Same State 1 - Mod - D172] for MS2 coat protein.
145

Identify the measured apparent KD of MS2 coat protein of UGAAGACAUGAGGAUCACCCAUGUGGGAUUAUGGGAGGAUAUACAAAGACGAGAGUCAGAGUAGAAGGCCUAGGAU [salish99-ss1-117(!)] for MS2 coat protein.
31.4

Identify the measured apparent KD of MS2 coat protein of AAAAAACAUGAGGAUCACCCAUGUAAAAAAAACACAGGAUAUCCCUUUUUUAAAUGAAAAGGAGAAGGGUGAAAAA [Nob's Hobby 9 - Jieux - Same State 1] for MS2 coat protein.
22.6

Identify the measured apparent KD of MS2 coat protein of GAACCACAUGAGGAUCACCCAUGUCAAAGAAAUCAAGGAUAUGCACAAAAGGAAAUAACUGCAGAAGGUGAACGAA [62%, Redo, 1] for MS2 coat protein.
22.6

Identify the measured apparent KD of MS2 coat protein of AUAAAACAUGAGGAUCACCCAUGUAGAAACAUGGGAGGAUAUACAAAGACGAAAGUCAAAGUAGAAGGCCUAAAAG [Meechl MS2 SS1 2] for MS2 coat protein.
104

Identify the measured apparent KD of MS2 coat protein of AAAGUGCCGACGAAGGAUAUAGCGGGUGAGACAUGAGGAUCACCCAUGUAUGCAGAACUCAUCCUCUAGAAGGUUGAGACGGCUA [Bionlateat] for MS2 coat protein.
488

Identify the measured apparent KD of MS2 coat protein of AAAAGACAUGAGGAUCACCCAUGUAAAAACGUGGGAGGAUAUGCAUGGAAAACAUGCUGUGCAGAAGGCCCGUGUC [SS1 - 22] for MS2 coat protein.
263

Identify the measured apparent KD of MS2 coat protein of AAGAAACAUGAGGAUCACCCAUGUGAGAAUAACACAGGAUAUGCGAAAAGAAACAAAGAAGCAGAAGGGUGAAGAA [Mat - Same State 1 - Tesla mod - 54] for MS2 coat protein.
20

Identify the measured apparent KD of MS2 coat protein of UAUAGACAUGAGGAUCACCCAUGUAGAAUUAUGGGAGGAUAUACAAAGACGAGAGUCAGAGUAGAAGGCCUAGGAA [salish99-ss1-152] for MS2 coat protein.
24

Identify the measured apparent KD of MS2 coat protein of UGAAGACAUGAGGAUCACCCAUGUGGGAUUAUGGGAGGAUAUACAAAGACGAGAGUCAGAGUAGAAGGCCUAGGAG [salish99-ss1-118(!)] for MS2 coat protein.
39.5

Identify the measured apparent KD of MS2 coat protein of GGCCAACAUGAGGAUCACCCAUGUCGCCAAAAUCGAGGAUAUGGGUGCCAGCUCGGGCAGCCAGAAGGCGACAAAA [Qutiqumais] for MS2 coat protein.
55.1

Identify the measured apparent KD of MS2 coat protein of GAUAUACAUGAGGAUCACCCAUGUUAGGUGGGUCAAGGAUAUUGAUAUAAAUAAAAAACUCGAGAAGGUGAAUAAA [JR_SS001_Sub020] for MS2 coat protein.
298

Identify the measured apparent KD of MS2 coat protein of GAGGACAUAGUAUAGGAUAUAUGAAUAAUUACAUGAGGAUCACCCAUGUCCAUUUAUAUGGGAACAUAGAAGGGUGGUAGUUGUC [Mat - Same state - Malcolm Mod - D130] for MS2 coat protein.
73
